Assay: Metabolic stability in Swiss CD1 mouse liver microsomes at 5 uM after 20 mins
Format: ADME, Microsome
Settings: read-out: Stability
REPORTED_METRIC: remaining at 20 min, 5 µM (%)

Worked set:
Cc1c(N2CCOCC2=O)cccc1S(=O)(=O)N[C@@H](CNC(=O)c1ccc(Cl)s1)C(=O)N1CCOC[C@@H]1C :: 91
CN1CCN(C(=O)[C@H](CNC(=O)c2ccc(Cl)s2)NS(=O)(=O)c2cccc(N3CCOCC3=O)c2Cl)CC1 :: 69
CCc1c(N2CCOCC2=O)cccc1S(=O)(=O)N[C@@H](CNC(=O)c1ccc(Cl)s1)C(=O)N1CCOC[C@@H]1C :: 99

I. Cc1c(N2CCOCC2=O)cccc1S(=O)(=O)N[C@@H](CNC(=O)c1ccc(Cl)s1)C(=O)N1CCN(C)CC1
II. CCc1c(-c2ccccn2)cccc1S(=O)(=O)N[C@@H](CNC(=O)c1ccc(Cl)s1)C(=O)N1CCOC[C@@H]1C
Prompt: Would you kindly point out which of I and II has the smaller remaining at 20 min, 5 µM figure? Choose, then provide that item's label.
Completion: I

I. Cc1c(N2CCCC2=O)cccc1S(=O)(=O)N[C@@H](CNC(=O)c1ccc(Cl)s1)C(=O)N1CCN(C)CC1.Cl
II. CCc1c(N2CCOCC2=O)cccc1S(=O)(=O)N[C@@H](CNC(=O)c1ccc(Cl)s1)C(=O)N1CCC(O)CC1
Prompt: Would you kindly point out which of I and II has the smaller remaining at 20 min, 5 µM figure? Choose, then provide that item's label.
Completion: I

P. CN1CCN(C(=O)[C@H](CNC(=O)c2ccc(Cl)s2)NS(=O)(=O)c2cccc(N3CCCC3=O)c2Cl)CC1
Q. CCc1c(N2CCOCC2=O)cccc1S(=O)(=O)N[C@@H](CNC(=O)c1ccc(Cl)s1)C(=O)N1CCC(OC)CC1
Prompt: Would you kindly point out which of P and Q has the smaller remaining at 20 min, 5 µM figure? Choose, then provide that item's label.
Completion: P
(P: 45%, Q: 98%)

This collection of values is drawn from ChEMBL document CHEMBL3091444.
